assayMetric: glass transition temperature (°C)

{"compound": "*Oc1ccc(S(=O)(=O)c2ccc(Oc3ccc(P(=O)(c4ccccc4)c4ccc(*)cc4)cc3)cc2)cc1 (repeat unit)", "experimentalValue": 231.00}
{"compound": "*CC(*)c1ccc(OCCC)cc1 (repeat unit)", "experimentalValue": 70}
{"compound": "*CCOCCOCCOCCOCCOc1ccc(C(=O)Nc2cc(NC(=O)c3ccc(O*)cc3)cc(-c3nc4ccccc4[nH]3)c2)cc1 (repeat unit)", "experimentalValue": 145.00}
{"compound": "*/C=C/c1ccc(*)c(OCc2cc(OCCC(C)CCCC(C)C)cc(OCC(CC)CCCC)c2)c1 (repeat unit)", "experimentalValue": 227.00}

From: the PolyMetriX glass transition set
